Tested on: Bel-7402
Assay: Cytotoxicity against human Bel7402 cells after 96 hrs by MTT assay
Format: functional, cell-based
Conditions: Bel-7402, 96 h
assay endpoint: pIC50
Just the number, please; pIC50 means minus log10 of the concentration in mol/L.

Problem: Which pIC50 is reported with Bel-7402 for this entry: `CC[C@@]1(O)C(=O)OCc2c1cc1n(c2=O)Cc2cc3ccccc3nc2-1` ?
Solution: 4.90

###

Test system: BGC-823
Assay: Cytotoxicity against human BGC823 cells after 96 hrs by MTT assay
Type: functional, cell-based
Conditions: BGC-823, 96 h
assay endpoint: IC50 (µM)
Just the number in µM, nothing appended.

Problem: Reported IC50 for CC[C@@]1(O)C(=O)OCc2c1cc1n(c2=O)Cc2cc3ccccc3nc2-1 [CAMPTOTHECIN] : what is it?
Solution: 9.67

###

Test system: HCT-8
Assay: Cytotoxicity against human HCT8 cells after 96 hrs by MTT assay
Type: functional, cell-based
Details: HCT-8, 96 h
assay endpoint: pIC50
Just the number, please; pIC50 means minus log10 of the concentration in mol/L.

Problem: Which pIC50 is reported with HCT-8 for this entry: `CC[C@@]1(O)C(=O)OCc2c1cc1n(c2=O)Cc2cc3ccccc3nc2-1` ?
Solution: 5.50
